test system: Escherichia coli TOP10; assay: shrunken log2 fold change of peptide-encoding DNA abundance (4.5 h post-induction vs induction); higher = less antimicrobial activity (less host growth inhibition); conditions: time post-induction: 4.5 h; library: site-saturation at positions 5, 18, 19, 20
Below, each of the sequences is paired with its reported shrunken log2 fold change value.

>  <CHAIN>
RRIRVRPPRLPRPRPRPHFAPRP

>  <shrunken log2 fold change>
0.0941

$$$$
>  <CHAIN>
RRIRCRPPRLPRPRPRPQFCPRP

>  <shrunken log2 fold change>
-0.187

$$$$
>  <CHAIN>
RRIRMRPPRLPRPRPRPWRLPRP

>  <shrunken log2 fold change>
-0.0743

$$$$
>  <CHAIN>
RRIRMRPPRLPRPRPRPIIDPRP

>  <shrunken log2 fold change>
-0.399

$$$$
>  <CHAIN>
RRIRDRPPRLPRPRPRPWMIPRP

>  <shrunken log2 fold change>
-0.124

$$$$

* * *

Below, each of the sequences is paired with its reported shrunken log2 fold change value.
tested on: Escherichia coli TOP10; experiment: shrunken log2 fold change of peptide-encoding DNA abundance (4.5 h post-induction vs induction); higher = less antimicrobial activity (less host growth inhibition); conditions: time post-induction: 4.5 h; library: site-saturation at positions 5, 18, 19, 20
OUTCOME MEASURE: shrunken log2 fold change

>  <CHAIN>
RRIRIRPPRLPRPRPRPSFQPRP

>  <OUTCOME MEASURE>
shrunken log2 fold change

>  <ASSAY RESULT>
-0.329

$$$$
>  <CHAIN>
RRIRYRPPRLPRPRPRPTYKPRP

>  <OUTCOME MEASURE>
shrunken log2 fold change

>  <ASSAY RESULT>
-1.17

$$$$
>  <CHAIN>
RRIRVRPPRLPRPRPRPSFWPRP

>  <OUTCOME MEASURE>
shrunken log2 fold change

>  <ASSAY RESULT>
-0.0205

$$$$
>  <CHAIN>
RRIRERPPRLPRPRPRPFPCPRP

>  <OUTCOME MEASURE>
shrunken log2 fold change

>  <ASSAY RESULT>
-0.0816

$$$$
>  <CHAIN>
RRIRRRPPRLPRPRPRPYKHPRP

>  <OUTCOME MEASURE>
shrunken log2 fold change

>  <ASSAY RESULT>
-0.89

$$$$
>  <CHAIN>
RRIRPRPPRLPRPRPRPKWQPRP

>  <OUTCOME MEASURE>
shrunken log2 fold change

>  <ASSAY RESULT>
0.225

$$$$
>  <CHAIN>
RRIRDRPPRLPRPRPRPMTYPRP

>  <OUTCOME MEASURE>
shrunken log2 fold change

>  <ASSAY RESULT>
-0.109

$$$$
>  <CHAIN>
RRIRGRPPRLPRPRPRPPKIPRP

>  <OUTCOME MEASURE>
shrunken log2 fold change

>  <ASSAY RESULT>
0.835

$$$$
>  <CHAIN>
RRIRWRPPRLPRPRPRPQLNPRP

>  <OUTCOME MEASURE>
shrunken log2 fold change

>  <ASSAY RESULT>
0.679

$$$$
>  <CHAIN>
RRIRVRPPRLPRPRPRPQSTPRP

>  <OUTCOME MEASURE>
shrunken log2 fold change

>  <ASSAY RESULT>
0.00487

$$$$
>  <CHAIN>
RRIRMRPPRLPRPRPRPESTPRP

>  <OUTCOME MEASURE>
shrunken log2 fold change

>  <ASSAY RESULT>
2.28

$$$$
>  <CHAIN>
RRIRVRPPRLPRPRPRPMAVPRP

>  <OUTCOME MEASURE>
shrunken log2 fold change

>  <ASSAY RESULT>
-0.0191

$$$$
>  <CHAIN>
RRIRTRPPRLPRPRPRPITKPRP

>  <OUTCOME MEASURE>
shrunken log2 fold change

>  <ASSAY RESULT>
0.0123

$$$$
>  <CHAIN>
RRIRVRPPRLPRPRPRPIRCPRP

>  <OUTCOME MEASURE>
shrunken log2 fold change

>  <ASSAY RESULT>
-0.0498

$$$$
>  <CHAIN>
RRIRIRPPRLPRPRPRPGMAPRP

>  <OUTCOME MEASURE>
shrunken log2 fold change

>  <ASSAY RESULT>
0.006

$$$$
>  <CHAIN>
RRIRERPPRLPRPRPRPQQEPRP

>  <OUTCOME MEASURE>
shrunken log2 fold change

>  <ASSAY RESULT>
-0.0361

$$$$
>  <CHAIN>
RRIRHRPPRLPRPRPRPEIGPRP

>  <OUTCOME MEASURE>
shrunken log2 fold change

>  <ASSAY RESULT>
0.103

$$$$
>  <CHAIN>
RRIRYRPPRLPRPRPRPGCPPRP

>  <OUTCOME MEASURE>
shrunken log2 fold change

>  <ASSAY RESULT>
-0.085

$$$$
>  <CHAIN>
RRIRNRPPRLPRPRPRPTGDPRP

>  <OUTCOME MEASURE>
shrunken log2 fold change

>  <ASSAY RESULT>
0.258

$$$$

* * *

tested on: Escherichia coli TOP10; assay: shrunken log2 fold change of peptide-encoding DNA abundance (4.5 h post-induction vs induction); higher = less antimicrobial activity (less host growth inhibition); settings: time post-induction: 4.5 h; library: site-saturation at positions 5, 18, 19, 20;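 further: peptides expressed intracellularly from a pBAD plasmid library in pooled LB shake-flask culture, induced with 0.3% L-arabinose, DNA abundance read by NGS, three biological replicates, DESeq2 with apeglm shrinkage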
OUTCOME MEASURE: shrunken log2 fold change

>  <CHAIN>
RRIRFRPPRLPRPRPRPPMSPRP

>  <ASSAY RESULT>
0.0816

$$$$
>  <CHAIN>
RRIRCRPPRLPRPRPRPPNWPRP

>  <ASSAY RESULT>
1.17

$$$$
>  <CHAIN>
RRIRSRPPRLPRPRPRPLGYPRP

>  <ASSAY RESULT>
-0.351

$$$$
>  <CHAIN>
RRIRCRPPRLPRPRPRPPYPPRP

>  <ASSAY RESULT>
-0.193

$$$$
>  <CHAIN>
RRIRIRPPRLPRPRPRPVHEPRP

>  <ASSAY RESULT>
-0.139

$$$$
>  <CHAIN>
RRIRDRPPRLPRPRPRPMFQPRP

>  <ASSAY RESULT>
-0.0111

$$$$
>  <CHAIN>
RRIRGRPPRLPRPRPRPPWEPRP

>  <ASSAY RESULT>
0.528

$$$$
>  <CHAIN>
RRIRVRPPRLPRPRPRPCGSPRP

>  <ASSAY RESULT>
-0.225

$$$$
>  <CHAIN>
RRIRWRPPRLPRPRPRPLARPRP

>  <ASSAY RESULT>
0.432

$$$$
>  <CHAIN>
RRIRYRPPRLPRPRPRPAPDPRP

>  <ASSAY RESULT>
0.307

$$$$
>  <CHAIN>
RRIRTRPPRLPRPRPRPSGFPRP

>  <ASSAY RESULT>
0.131

$$$$
>  <CHAIN>
RRIRTRPPRLPRPRPRPYRQPRP

>  <ASSAY RESULT>
-0.00615

$$$$
>  <CHAIN>
RRIRSRPPRLPRPRPRPRCIPRP

>  <ASSAY RESULT>
-0.155

$$$$
>  <CHAIN>
RRIRFRPPRLPRPRPRPLWRPRP

>  <ASSAY RESULT>
0.32

$$$$
>  <CHAIN>
RRIRWRPPRLPRPRPRPKWLPRP

>  <ASSAY RESULT>
0.19

$$$$
>  <CHAIN>
RRIRARPPRLPRPRPRPCWKPRP

>  <ASSAY RESULT>
-0.16

$$$$
>  <CHAIN>
RRIRVRPPRLPRPRPRPYNWPRP

>  <ASSAY RESULT>
-0.603

$$$$
>  <CHAIN>
RRIRYRPPRLPRPRPRPDAQPRP

>  <ASSAY RESULT>
-0.0145

$$$$
>  <CHAIN>
RRIRERPPRLPRPRPRPQECPRP

>  <ASSAY RESULT>
-0.399

$$$$
>  <CHAIN>
RRIRMRPPRLPRPRPRPCYNPRP

>  <ASSAY RESULT>
-0.247

$$$$
>  <CHAIN>
RRIRERPPRLPRPRPRPLACPRP

>  <ASSAY RESULT>
-0.269

$$$$
>  <CHAIN>
RRIRGRPPRLPRPRPRPLDQPRP

>  <ASSAY RESULT>
1.01

$$$$
>  <CHAIN>
RRIRRRPPRLPRPRPRPVQMPRP

>  <ASSAY RESULT>
0.158

$$$$
>  <CHAIN>
RRIRYRPPRLPRPRPRPWSKPRP

>  <ASSAY RESULT>
-0.0945

$$$$
>  <CHAIN>
RRIRARPPRLPRPRPRPGSAPRP

>  <ASSAY RESULT>
0.444

$$$$
>  <CHAIN>
RRIRDRPPRLPRPRPRPYMPPRP

>  <ASSAY RESULT>
-0.517

$$$$
>  <CHAIN>
RRIRARPPRLPRPRPRPWQPPRP

>  <ASSAY RESULT>
0.0351

$$$$
>  <CHAIN>
RRIRIRPPRLPRPRPRPCNTPRP

>  <ASSAY RESULT>
-0.0252

$$$$
>  <CHAIN>
RRIRYRPPRLPRPRPRPKIVPRP

>  <ASSAY RESULT>
-0.188

$$$$
>  <CHAIN>
RRIRWRPPRLPRPRPRPPLNPRP

>  <ASSAY RESULT>
0.188

$$$$
>  <CHAIN>
RRIRPRPPRLPRPRPRPDQQPRP

>  <ASSAY RESULT>
-0.0644

$$$$
>  <CHAIN>
RRIRERPPRLPRPRPRPKCCPRP

>  <ASSAY RESULT>
-0.191

$$$$
>  <CHAIN>
RRIRARPPRLPRPRPRPCFYPRP

>  <ASSAY RESULT>
-0.218

$$$$
>  <CHAIN>
RRIRPRPPRLPRPRPRPGECPRP

>  <ASSAY RESULT>
0.739

$$$$
>  <CHAIN>
RRIRVRPPRLPRPRPRPNQLPRP

>  <ASSAY RESULT>
-0.188

$$$$
>  <CHAIN>
RRIRRRPPRLPRPRPRPRSYPRP

>  <ASSAY RESULT>
0.0753

$$$$
>  <CHAIN>
RRIRDRPPRLPRPRPRPHLWPRP

>  <ASSAY RESULT>
0.611

$$$$
>  <CHAIN>
RRIRIRPPRLPRPRPRPMNMPRP

>  <ASSAY RESULT>
-0.375

$$$$
>  <CHAIN>
RRIRCRPPRLPRPRPRPLDKPRP

>  <ASSAY RESULT>
-0.328

$$$$
>  <CHAIN>
RRIRSRPPRLPRPRPRPDSQPRP

>  <ASSAY RESULT>
-0.267

$$$$
>  <CHAIN>
RRIRERPPRLPRPRPRPQRRPRP

>  <ASSAY RESULT>
-0.0022

$$$$
>  <CHAIN>
RRIRNRPPRLPRPRPRPKSVPRP

>  <ASSAY RESULT>
0.0186

$$$$
>  <CHAIN>
RRIRGRPPRLPRPRPRPEQAPRP

>  <ASSAY RESULT>
1.83

$$$$
>  <CHAIN>
RRIRSRPPRLPRPRPRPQNTPRP

>  <ASSAY RESULT>
-0.522

$$$$
>  <CHAIN>
RRIRIRPPRLPRPRPRPFFEPRP

>  <ASSAY RESULT>
-0.267

$$$$
>  <CHAIN>
RRIRNRPPRLPRPRPRPVQIPRP

>  <ASSAY RESULT>
0.00489

$$$$
>  <CHAIN>
RRIRARPPRLPRPRPRPGNVPRP

>  <ASSAY RESULT>
0.332

$$$$
>  <CHAIN>
RRIRARPPRLPRPRPRPWCQPRP

>  <ASSAY RESULT>
-0.031

$$$$
>  <CHAIN>
RRIRDRPPRLPRPRPRPHMDPRP

>  <ASSAY RESULT>
0.0662

$$$$
>  <CHAIN>
RRIRRRPPRLPRPRPRPWTEPRP

>  <ASSAY RESULT>
0.116

$$$$
>  <CHAIN>
RRIRSRPPRLPRPRPRPMDVPRP

>  <ASSAY RESULT>
-0.02

$$$$
>  <CHAIN>
RRIRERPPRLPRPRPRPTHYPRP

>  <ASSAY RESULT>
-0.312

$$$$
>  <CHAIN>
RRIRRRPPRLPRPRPRPKESPRP

>  <ASSAY RESULT>
0.023

$$$$
